Recorded values, source ChEMBL document CHEMBL4190346.

Test system: HeLa
PROCEDURE_DETAILS: Induction of apoptosis in human HeLa cells assessed as increase in caspase-3 activity by measuring pNA release level at 8 uM incubated for 4 hrs using c-DEVD-pNA substrate by colorimetric assay
Format: functional
Label Condition met when Activity is at or above 0.3 nmol/min/mL; anything below gets Condition not met.

These recorded examples may help you get a feel for the data.
{"TEST_SMILES": "CC1=C(COC(=O)c2ccccc2)C(=O)O[C@@H]([C@@H](C)[C@H]2CC[C@H]3[C@@H]4C[C@H]5O[C@]56C(=O)C=CC(=O)[C@]6(C)[C@H]4CC[C@]23C)C1", "LABEL_VALUE": "Condition met"}
{"TEST_SMILES": "CCCC(=O)OCC1=C(C)C[C@H]([C@@H](C)[C@H]2CC[C@H]3[C@@H]4C[C@H]5O[C@]56[C@@H](OC(=O)CCC)C=CC(=O)[C@]6(C)[C@H]4CC[C@]23C)OC1=O", "LABEL_VALUE": "Condition not met"}
{"TEST_SMILES": "CC1=C(COC(=O)C(C)(C)C)C(=O)O[C@@H]([C@@H](C)[C@H]2CC[C@H]3[C@@H]4C[C@H]5O[C@]56[C@@H](OC(=O)C(C)(C)C)C=CC(=O)[C@]6(C)[C@H]4CC[C@]23C)C1", "LABEL_VALUE": "Condition not met"}
{"TEST_SMILES": "CCC(=O)OCC1=C(C)C[C@H]([C@@H](C)[C@H]2CC[C@H]3[C@@H]4C[C@H]5O[C@]56[C@@H](OC(=O)CC)C=CC(=O)[C@]6(C)[C@H]4CC[C@]23C)OC1=O", "LABEL_VALUE": "Condition met"}
{"TEST_SMILES": "CC1=C(COC(=O)C(C)(C)C)C(=O)O[C@@H]([C@@H](C)[C@H]2CC[C@H]3[C@@H]4C[C@H]5O[C@]56[C@@H](O)C=CC(=O)[C@]6(C)[C@H]4CC[C@]23C)C1", "LABEL_VALUE": "Condition not met"}

Note: attention shifts to another entry.
Incoming: Exam item: decide whether the reported Activity for `CC1=C(CO)C(=O)O[C@@H]([C@@H](C)[C@H]2CC[C@H]3[C@@H]4C[C@H]5O[C@]56[C@@H](O)C=CC(=O)[C@]6(C)[C@H]4CC[C@]23C)C1` is at least 0.3 nmol/min/mL.
Outgoing: Condition met

----------
Test system: MCF7
PROCEDURE_DETAILS: Cytotoxicity against human MCF7 cells assessed as reduction in cell viability using compound addition to cell culture cells in log phase of growth and incubated for 48 hrs by MTT assay
Type: functional, cell-based
EXPERIMENTAL_SETUP: Homo sapiens, MCF7, 48 h; read-out: IC50
Numbered stars: 1 amine (or outer) side, 2 acyl side, 3 side chain; on linkers, the order of the positions; unused ones are H or OH. Bridge positions count the residues as written; N and C are the ends. Square brackets hold non-standard residues; d marks the D form. Peptide text beside a SMILES is read from it. I, II: the chains in the order shown. Actinocin(1to9) = Cc1c2oc3c(C)ccc(C(=O)[*:2])c3nc-2c(C(=O)[*:1])c(N)c1=O; NMeV = CN[C@H](C(=O)O)C(C)C; Sar = CNCC(=O)O
QUANTITY_NAME: log10 of IC50 (log10 of the value in µM)
Lab note - IC50 converted to log10 from values in µM.

Notebook: `C=C1C(=O)O[C@@H]([C@@H](C)[C@H]2CC[C@H]3[C@@H]4C[C@H]5O[C@]56[C@@H](O)[C@@H](OC)CC(=O)[C@]6(C)[C@H]4CC[C@]23C)C=C1C` , log10 of IC50 read as 1.36

Notebook: `CC1=C(COC(=O)c2ccoc2)C(=O)O[C@@H]([C@@H](C)[C@H]2CC[C@H]3[C@@H]4C[C@H]5O[C@]56[C@@H](O)C=CC(=O)[C@]6(C)[C@H]4CC[C@]23C)C1` , log10 of IC50 read as 0.00

Notebook: `C=CCOC(=O)/C(CO)=C(C)\C=C\[C@@H](C)[C@H]1CC[C@H]2[C@@H]3C[C@H]4O[C@]45[C@@H](O)C=CC(=O)[C@]5(C)[C@H]3CC[C@]12C` , log10 of IC50 read as 0.38

Notebook: `CC1=C(CO)C(=O)O[C@@H]([C@@H](C)[C@H]2CC[C@H]3[C@@H]4C[C@H](Cl)[C@]5(O)[C@@H](O)C=CC(=O)[C@]5(C)[C@H]4CC[C@]23C)C1` , log10 of IC50 read as 0.90

Notebook: Cc1c2oc3c(C)ccc(C(=O)N[C@@H]4C(=O)N[C@H](C(C)C)C(=O)N5CCC[C@H]5C(=O)N(C)CC(=O)N(C)[C@@H](C(C)C)C(=O)O[C@@H]4C)c3nc-2c(C(=O)N[C@@H]2C(=O)N[C@H](C(C)C)C(=O)N3CCC[C@H]3C(=O)N(C)CC(=O)N(C)[C@@H](C(C)C)C(=O)O[C@@H]2C)c(N)c1=O [DACTINOMYCIN] (I: T[dV]P[Sar][NMeV] / II: T[dV]P[Sar][NMeV]; ester I:1-I:C, II:1-II:C; linker I:N-II:N via Actinocin(1to9)) , log10 of IC50 read as -1.32

Notebook: `CC1=C(COC(=O)CBr)C(=O)O[C@@H]([C@@H](C)[C@H]2CC[C@H]3[C@@H]4C[C@H]5O[C@]56[C@@H](O)C=CC(=O)[C@]6(C)[C@H]4CC[C@]23C)C1` , log10 of IC50 read as -0.05

Notebook: `CCCCCCCCCCCC(=O)OCC1=C(C)C[C@H]([C@@H](C)[C@H]2CC[C@H]3[C@@H]4C[C@H]5O[C@]56[C@@H](O)C=CC(=O)[C@]6(C)[C@H]4CC[C@]23C)OC1=O` , log10 of IC50 read as 0.54

Notebook: `CC1=C(COC(=O)C(C)(C)C)C(=O)O[C@@H]([C@@H](C)[C@H]2CC[C@H]3[C@@H]4C[C@H]5O[C@]56[C@@H](OC(=O)C(C)(C)C)C=CC(=O)[C@]6(C)[C@H]4CC[C@]23C)C1` , log10 of IC50 read as 0.08

Notebook: `CC(=O)OCC1=C(C)C[C@H]([C@@H](C)[C@H]2CC[C@H]3[C@@H]4C[C@H]5O[C@]56[C@@H](OC(=O)c5ccc(Br)cc5)C=CC(=O)[C@]6(C)[C@H]4CC[C@]23C)OC1=O` , log10 of IC50 read as -0.22

Notebook: `CO[C@H]1C=CC(=O)[C@]2(C)[C@H]3CC[C@]4(C)[C@@H]([C@H](C)[C@H]5CC(C)=C(CO)C(=O)O5)CC[C@H]4[C@@H]3C[C@H]3O[C@]132` , log10 of IC50 read as 0.23

Notebook: `CC1=C(C=O)C(=O)O[C@@H]([C@@H](C)[C@H]2CC[C@H]3[C@@H]4C[C@H]5O[C@]56[C@@H](O)C=CC(=O)[C@]6(C)[C@H]4CC[C@]23C)C1` , log10 of IC50 read as 0.32

Notebook: `CC1=C(CO)C(=O)O[C@@H]([C@@H](C)[C@H]2CC[C@H]3[C@@H]4C[C@H]5O[C@]56[C@@H](O)C=C[C@@H](O)[C@]6(C)[C@H]4CC[C@]23C)C1` , log10 of IC50 read as 0.88

Notebook: `CC1=C(COC(=O)c2ccoc2)C(=O)O[C@@H]([C@@H](C)[C@H]2CC[C@H]3[C@@H]4C[C@H](Cl)[C@]5(O)[C@@H](O)C=CC(=O)[C@]5(C)[C@H]4CC[C@]23C)C1` , log10 of IC50 read as 1.46

Notebook: `CC1=C(COC(=O)c2cccc3ccccc23)C(=O)O[C@@H]([C@@H](C)[C@H]2CC[C@H]3[C@@H]4C[C@H]5O[C@]56[C@@H](O)C=CC(=O)[C@]6(C)[C@H]4CC[C@]23C)C1` , log10 of IC50 read as 0.34

Notebook: `CC1=C(C=O)C(=O)O[C@@H]([C@@H](C)[C@H]2CC[C@H]3[C@@H]4C[C@H]5O[C@]56C(=O)C=CC(=O)[C@]6(C)[C@H]4CC[C@]23C)C1` , log10 of IC50 read as 1.04

Notebook: `CCCCN[C@H]1CC(=O)[C@]2(C)[C@H]3CC[C@]4(C)[C@@H]([C@H](C)[C@H]5CC(C)=C(CO)C(=O)O5)CC[C@H]4[C@@H]3C[C@H]3O[C@]32[C@H]1O` , log10 of IC50 read as 0.84

----------
Tested on: MCF7
PROCEDURE_DETAILS: Cytotoxicity against human MCF7 cells assessed as reduction in cell viability using compound addition to cell culture cells in log phase of growth and incubated for 48 hrs by MTT assay
Assay type: functional, cell-based
EXPERIMENTAL_SETUP: Homo sapiens, MCF7, 48 h; read-out: IC50
# log10 of IC50 listing for each entry below
Lab note - IC50 converted to log10 from values in nM.

Some solved cases for reference:
{"TEST_SMILES": "CC(=O)OCC1=C(C)C[C@H]([C@@H](C)[C@H]2CC[C@H]3[C@@H]4C[C@H](Cl)[C@]5(O)[C@@H](O)C=CC(=O)[C@]5(C)[C@H]4CC[C@]23C)OC1=O", "SYSTEM": "MCF7", "log10 of IC50": 3.86}
{"TEST_SMILES": "COC(=O)CCC(=O)OCC1=C(C)C[C@H]([C@@H](C)[C@H]2CC[C@H]3[C@@H]4C[C@H]5O[C@]56[C@@H](OC(=O)CCC(=O)OC)C=CC(=O)[C@]6(C)[C@H]4CC[C@]23C)OC1=O", "SYSTEM": "MCF7", "log10 of IC50": 3.18}
{"TEST_SMILES": "CC1=C(COC(=O)c2ccoc2)C(=O)O[C@@H]([C@@H](C)[C@H]2CC[C@H]3[C@@H]4C[C@H]5O[C@]56[C@@H](OC(=O)c5ccoc5)C=CC(=O)[C@]6(C)[C@H]4CC[C@]23C)C1", "SYSTEM": "MCF7", "log10 of IC50": 3.23}
{"TEST_SMILES": "CCC(=O)OCC1=C(C)C[C@H]([C@@H](C)[C@H]2CC[C@H]3[C@@H]4C[C@H]5O[C@]56[C@@H](O)C=CC(=O)[C@]6(C)[C@H]4CC[C@]23C)OC1=O", "SYSTEM": "MCF7", "log10 of IC50": 3.08}
{"TEST_SMILES": "CC1=C(CO)C(=O)O[C@@H]([C@@H](C)[C@H]2CC[C@H]3[C@@H]4C[C@H]5O[C@]56[C@@H](O)[C@@H](NCc5ccccc5)CC(=O)[C@]6(C)[C@H]4CC[C@]23C)C1", "SYSTEM": "MCF7", "log10 of IC50": 3.82}

Notebook: `CC1=C(COC(=O)C(C)(C)C)C(=O)O[C@@H]([C@@H](C)[C@H]2CC[C@H]3[C@@H]4C[C@H]5O[C@]56[C@@H](O)C=CC(=O)[C@]6(C)[C@H]4CC[C@]23C)C1` , log10 of IC50 read as 2.60

Notebook: `CC1=C(CO[Si](C)(C)C(C)(C)C)C(=O)O[C@@H]([C@@H](C)[C@H]2CC[C@H]3[C@@H]4C[C@H]5O[C@]56[C@@H](O)C=CC(=O)[C@]6(C)[C@H]4CC[C@]23C)C1` , log10 of IC50 read as 3.08
